test system: HL-60; assay: Concentration required to reduce cell number (HL-60 human promyelocytic leukemia cell line) on day 7 by 50%; assay type: functional, cell-based; conditions: HL-60, 168 h
pIC50: −log10 of the molar value.
Measured pIC50 by item

[
  {
    "structure.smiles.string": "CC(C)NC(=O)OCc1ccccc1COC(=O)NC(C)C",
    "qualifier": "<",
    "pIC50": 3.52
  },
  {
    "structure.smiles.string": "CC(C)NC(=O)OCc1c(COC(=O)NC(C)C)c(-c2ccccc2)n2c1SCC2",
    "qualifier": "=",
    "pIC50": 5.82
  },
  {
    "structure.smiles.string": "CC(C)NC(=O)OCc1c(COC(=O)NC(C)C)c(-c2ccc(Cl)cc2)n2c1SCC2",
    "qualifier": "=",
    "pIC50": 6.07
  },
  {
    "structure.smiles.string": "CC(C)NC(=O)OCc1c(COC(=O)NC(C)C)c(-c2ccc(F)cc2)n2c1SCC2",
    "qualifier": "=",
    "pIC50": 5.80
  },
  {
    "structure.smiles.string": "CC(C)NC(=O)OCc1c(COC(=O)NC(C)C)c(-c2ccc(Cl)c(Cl)c2)n2c1SCC2",
    "qualifier": "=",
    "pIC50": 5.72
  },
  {
    "structure.smiles.string": "CC(C)NC(=O)OCc1c(COC(=O)NC(C)C)c(-c2ccc(Cl)c(Cl)c2)n2c1CCC2",
    "qualifier": "=",
    "pIC50": 5.82
  }
]

----------
system: HL-60; test: Growth inhibitory activity against HL-60 human promyelocytic leukemia cell line relative to NSC-278214; assay type: functional
measured.metric: Potency

[
  {
    "structure.smiles.string": "CC(C)NC(=O)OCc1ccccc1COC(=O)NC(C)C",
    "qualifier": "<",
    "val": 0.005
  },
  {
    "structure.smiles.string": "CC(C)NC(=O)OCc1c(COC(=O)NC(C)C)c(-c2ccc(Cl)c(Cl)c2)n2c1CCC2",
    "qualifier": "=",
    "val": 1
  },
  {
    "structure.smiles.string": "CC(C)NC(=O)OCc1c(COC(=O)NC(C)C)c(-c2ccc(F)cc2)n2c1SCC2",
    "qualifier": "=",
    "val": 0.94
  },
  {
    "structure.smiles.string": "CC(C)NC(=O)OCc1c(COC(=O)NC(C)C)c(-c2ccc(Cl)c(Cl)c2)n2c1SCC2",
    "qualifier": "=",
    "val": 0.79
  },
  {
    "structure.smiles.string": "CC(C)NC(=O)OCc1c(COC(=O)NC(C)C)c(-c2ccccc2)n2c1SCC2",
    "qualifier": "=",
    "val": 1
  },
  {
    "structure.smiles.string": "CC(C)NC(=O)OCc1c(COC(=O)NC(C)C)c(-c2ccc(Cl)cc2)n2c1SCC2",
    "qualifier": "=",
    "val": 1.76
  }
]
